assay: Rifalazil solubility in surfactants and surfactant mixtures; assay type: physicochemical; details: Formulations A and B (excipient blend), aqueous with cosolvent or surfactant or cyclodextrin, thermodynamic from solid; in Formulations A and B; 24 hrs equilibration
measure: solubility at 24 h (mg/mL)
Kindly answer with a numeric value in mg/mL, unit omitted.

Query string: # query: solubility at 24 h of entry CO[C@H]1/C=C/O[C@@]2(C)Oc3c(C)c(O)c4c(=O)c(c5oc6cc(N7CCN(CC(C)C)CC7)cc(O)c6nc-5c4c3C2=O)NC(=O)/C(C)=C\C=C\[C@H](C)[C@H](O)[C@@H](C)[C@@H](O)[C@@H](C)[C@H](OC(C)=O)[C@@H]1C [Rifalazil]
Result string: 23
